# Test system: SNB-19 CNS
# Run description: NCI tumour cell line growth inhibition, 48 h
Assay readout: GI50

Below: 4 molecules and their reported GI50.
Molecule: O=c1oc2cc(OS(=O)(=O)c3ccccc3)ccc2c2c1CCCCC2
GI50: > 100 µM
//
Molecule: CCC(=O)OC1=CN2C(=NC(c3ccc(N)cc3)=CC2c2cc(OC)c(OC)c(OC)c2)S1 (stereo not given)
GI50: 3.59 µM
//
Molecule: COc1cc(/C=C/c2cc(/C=C/c3ccc(O)c(OC)c3)[nH]c(=O)n2)ccc1O
GI50: 3.38 µM
//
Molecule: C=C(C)[C@@H]1CC[C@]2(C)[C@H](CC=C3[C@@H]4[C@H](C)[C@@H](C)CC[C@]4(CO)CC[C@]32C)[C@@]1(C)CCCN
GI50: 2.11 µM

For the next question, use this molecule.
Req: Query (molecule): `N#C/C(=C\c1cccnc1)c1nc2ccccc2o1` ; field requested: GI50
Resp: > 100 µM

====

# Tested on: DLD-1 colon
# Run description: NCI tumour cell line growth inhibition, 48 h
Entries annotated with measured TGI

Below: 3 compounds and their reported TGI.
Compound: O=C1OC2C=CC1C1(CCOC1=O)C2 (stereo unspecified)
Observed: > 100 µM
//
Compound: c1ccc(COc2cccc3cccnc23)cc1
Observed: > 100 µM
//
Compound: CN/N=C(\C(=O)Nc1ccc([N+](=O)[O-])cc1[N+](=O)[O-])C1NC(=O)NC1=O (stereo unspecified)
Observed: > 100 µM

Req: // lookup TGI | system=DLD-1 colon | key= O=C1C2=C(c3ccccc31)C(c1ccc(Cl)cc1)NC(=S)N2 (stereo unspecified)
Resp: 60.9 µM

Req: // lookup TGI | system=DLD-1 colon | key= `CC(=O)Nc1ccc(/C=C(\NC(=O)c2ccccc2)C(=O)NNS(=O)(=O)c2ccc(C)cc2)cc1`
Resp: > 100 µM

Req: // lookup TGI | system=DLD-1 colon | key= `COc1cc(C(=O)C/C(CCC(=O)Nc2ccc(Cl)cc2Cl)=N/Nc2nnc(C)n2N)ccc1O`
Resp: > 100 µM

====

# System: SK-MEL-28 melanoma
# Run description: NCI tumour cell line growth inhibition, 48 h
Assay readout: GI50

Molecule: O=C(Nc1cccc([N+](=O)[O-])c1)c1cc2ccccc2cc1O
Assay readout: GI50
Observed: 3.23 µM
--
Molecule: CC[C@H](C)[C@H](NC(=O)c1nccn1C)C(=O)N(C)[C@H](C[C@@H](OC(C)=O)c1nc(C(=O)N[C@@H](Cc2ccccc2)C[C@H](C)C(=O)OC)cs1)C(C)C
Assay readout: GI50
Observed: 5.05 µM
--
Molecule: CC(C)=CCC/C(C)=C/[C@H]1OC(=O)CC12C[C@H](O)C=CC2=O (stereo partly drawn)
Assay readout: GI50
Observed: 2.23 µM

Req: Query (molecule): `C=C(C)[C@@H]1CC[C@]2(C)[C@H](CC=C3[C@@H]4[C@H](C)[C@@H](C)CC[C@]4(CO)CC[C@]32C)[C@@]1(C)CCCN` ; field requested: GI50
Resp: 0.952 µM

Req: Query (molecule): `CN1N=Nc2c(C(F)(F)F)nn(-c3ccccc3)c2N(C)C1=O` ; field requested: GI50
Resp: > 100 µM

Req: Query (molecule): `COc1cc(CNC(=O)CCSc2nc3ccccc3c(=O)n2Cc2cc(OC)c(OC)c(OC)c2)cc(OC)c1OC` ; field requested: GI50
Resp: 6.69 µM

Req: Query (molecule): `Cc1[nH]n(-c2ccccc2)c(=O)c1C(=O)c1ccccc1` ; field requested: GI50
Resp: > 25 µM

Req: Query (molecule): `CC(=O)O[C@H](C[C@H](C(C)C)N(C)C(=O)[C@@H](NC(=O)[C@H]1CCCCN1C)C(C)(C)C)c1nc(C(=O)N[C@@H](Cc2ccccc2)C[C@H](C)C(=O)O)cs1` ; field requested: GI50
Resp: 1.05 µM

====

# Test system: SN12C renal
# Run description: NCI tumour cell line growth inhibition, 48 h
Assay readout: TGI

Molecule: CCOC(=O)C1=C(C)N(c2ccc(C)cc2)C2(O)C=CC(=O)C3=C(O)c4ccccc4C(=O)C312 (stereo not given)
Target entity: SN12C renal
Observed: > 100 µM
--
Molecule: COC(=O)C1=C(C)NC2(C)OC(C)(O)C(C(C)=O)C12C(C)=O (stereo not given)
Target entity: SN12C renal
Observed: > 100 µM
--
Molecule: Oc1ccc2ccccc2c1OCc1nnc(CCCCCCCCc2nnc(COc3c(O)ccc4ccccc34)o2)o1
Target entity: SN12C renal
Observed: > 100 µM
--
Molecule: Cn1c(O)c(N=NC(N)=S)c2ccccc21
Target entity: SN12C renal
Observed: > 100 µM
--
Molecule: CC(C)(O)CCC(O)C(C)(O)C1CCC2(O)C3=CC(=O)C4(O)CC(O)C(O)CC4(C)C3CCC12C (stereo not given) (tested in a mixture with another compound)
Target entity: SN12C renal
Observed: > 100 µM

Req: Query (molecule): COc1cccc2ccc3c(c12)C(=O)OC31CCc2c(C)cccc21 (stereo not given) ; field requested: TGI
Resp: > 46.4 µM

Req: Query (molecule): `C=C(C(=O)OC)[C@H]1CC/C(C)=C/CC/C(C)=C/CC[C@@]2(C)O[C@@H]2C1` ; field requested: TGI
Resp: 31.2 µM

Req: Query (molecule): COc1ccc(C(C)NNC(=O)c2ccncc2)cc1F (stereo not given) ; field requested: TGI
Resp: > 100 µM

Req: Query (molecule): CCOC(=O)c1c(-c2ccc(OC)c(O)c2)c(C#N)c(=S)n(C2OC(CO)C(O)C(O)C2O)c1-c1ccccc1 (stereo not given) ; field requested: TGI
Resp: > 100 µM

Req: Query (molecule): `CN1N=Nc2c(C(F)(F)F)nn(-c3ccccc3)c2N(C)C1=O` ; field requested: TGI
Resp: > 100 µM

====

# Tested on: RPMI-8226 leukemia
# Run description: NCI tumour cell line growth inhibition, 48 h; in the data active = GI50 below about 0.43 µM; inactive = the rest
Parameter call: string, one of active, inactive

Molecule: N#Cc1c(NCc2ccccc2)nc(NCc2ccccc2)c(C#N)c1-c1cccc(O)c1
Target entity: RPMI-8226 leukemia
Class assignment: inactive

Molecule: CS(=O)(=O)Nc1cc(-c2ccc3ncnc(Nc4cccc(Cl)c4F)c3c2)cnc1Cl
Target entity: RPMI-8226 leukemia
Class assignment: inactive

Molecule: O[C@H](CN1CC1)[C@@H](O)CN1CC1
Target entity: RPMI-8226 leukemia
Class assignment: inactive

Molecule: CN1N=Nc2c(C(F)(F)F)nn(-c3ccccc3)c2N(C)C1=O
Target entity: RPMI-8226 leukemia
Class assignment: inactive

Molecule: CC(C)=CCC/C(C)=C/[C@H]1OC(=O)CC12C[C@H](O)C=CC2=O (stereo partly specified)
Target entity: RPMI-8226 leukemia
Class assignment: active

Req: Test call for this molecule, please: `O=C(Nc1cccc([N+](=O)[O-])c1)c1cc2ccccc2cc1O`
Resp: active

====

# System: KM12 colon
# Run description: NCI tumour cell line growth inhibition, 48 h; in the data active = GI50 below about 0.43 µM; inactive = the rest
Parameter call: string, one of TRUE for active, FALSE for inactive

Please review the entries below; each comes with its answer.
Compound: O[C@H](CN1CC1)[C@@H](O)CN1CC1
Class assignment: FALSE
--
Compound: CC1(C)N=C(N)N=C(N)N1c1ccc(OCCCCNC(=O)c2ccc(S(=O)(=O)F)cc2)c(Cl)c1
Class assignment: FALSE
--
Compound: O=C(Nc1ccc(-c2ccnc(Nc3ccc(N4CCOCC4)cc3)n2)cc1)C1CCCN1 (centres undefined)
Class assignment: FALSE
--
Compound: Cc1ccc2cnc(N)c(C#Cc3cncc(C(=O)Nc4ccc(CN5CCN(C)CC5)c(C(F)(F)F)c4)c3)c2c1
Class assignment: TRUE
--
Compound: c1cc2ccc1CNCCN1CCNCc3ccc(cc3)Oc3ccc(cc3)CNCCN(CCNCc3ccc(cc3)O2)CCNCc2ccc(cc2)Oc2ccc(cc2)CNCC1
Class assignment: FALSE

Req: Test call for this compound, please: N#CC1CCc2c(c(-c3cn[nH]c3C(F)(F)F)nc3c(F)cc4[nH]ncc4c23)C1 (centres undefined)
Resp: FALSE

====

Entries annotated with measured TGI
# Test system: SN12C renal
# Run description: NCI tumour cell line growth inhibition, 48 h
Give just the numeric value; µM need not be written.

Below: 3 molecules and their reported TGI.
Molecule: CCCCCCCCCCCCCCC(O)C1CCC(C(O)CCC(O)CCCCCC(O)CC2=CC(C)OC2=O)O1 (stereo not given)
TGI [µM]: 9.24
--
Molecule: CCN(CC)CCOc1nc2cc(OC)c(OC)cc2c2c1-c1ccc(OC)cc1C2=O
TGI [µM]: 21.1
--
Molecule: CN(C)CCNc1c2c(c(NCCN(C)C)c3c(CO)c[nH]c13)C(=O)c1ccccc1C2=O
TGI [µM]: 8.33

For the next question, use this molecule.
Req: // lookup TGI | system=SN12C renal | key= `CC(C)c1nccn1Cc1ccc(Cl)cc1Cl`
Resp: 88.7
